Provide the reported pIC50 of each item.
# tested_on: PDE9A (Homo sapiens)
# Sequence (O76083 whole entry): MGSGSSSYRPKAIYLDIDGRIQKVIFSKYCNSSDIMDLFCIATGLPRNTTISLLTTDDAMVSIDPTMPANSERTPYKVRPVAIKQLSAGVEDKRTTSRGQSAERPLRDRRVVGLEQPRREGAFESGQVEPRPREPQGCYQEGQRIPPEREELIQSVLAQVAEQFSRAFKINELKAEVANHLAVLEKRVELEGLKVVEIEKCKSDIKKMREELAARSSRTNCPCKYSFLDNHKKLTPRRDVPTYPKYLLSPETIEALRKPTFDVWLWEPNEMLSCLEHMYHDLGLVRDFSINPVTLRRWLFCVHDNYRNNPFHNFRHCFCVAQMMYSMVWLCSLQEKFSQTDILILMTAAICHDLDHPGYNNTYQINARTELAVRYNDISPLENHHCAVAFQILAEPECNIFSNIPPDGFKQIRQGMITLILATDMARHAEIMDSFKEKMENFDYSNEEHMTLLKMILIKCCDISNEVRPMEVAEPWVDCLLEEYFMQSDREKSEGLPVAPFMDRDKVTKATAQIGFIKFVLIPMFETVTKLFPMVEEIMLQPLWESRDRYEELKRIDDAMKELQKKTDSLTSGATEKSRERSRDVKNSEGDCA
# procedure_summary: PDE enzymatic activity assay (SPA), PDE9A
# cond: cGMP substrate; given as ranges; for illustrative purposes
pIC50: −log10 of the molar value.

Q: Returns the measured pIC50 for the input compound. Input: "Cc1ccc(Cl)c(-n2ncc3c(=O)[nH]c(Cc4ccccc4OC(F)(F)F)nc32)c1"
A: 6.30 to 8.00

Q: Reported pIC50, compound "O=c1[nH]c(Cc2ccccc2OC(F)(F)F)nc2c1cnn2-c1ccc(F)cc1Br" : ____
A: 6.30 to 8.00

Q: Query (compound): "O=C(O)c1ccc(Cl)c(-n2ncc3c(=O)[nH]c(Cc4ccccc4OC(F)(F)F)nc32)c1" ; field requested: pIC50
A: 6.30 to 8.00

Q: # query: pIC50 of entry "O=c1[nH]c(Cc2ccccc2OC(F)(F)F)nc2c1cnn2-c1cccc(F)c1"
A: < 6.30

Q: # pIC50 lookup, item "Cc1ccc(C)c(-n2ncc3c(=O)[nH]c(Cc4ccccc4OC(F)(F)F)nc32)c1"
A: 6.30 to 8.00

Q: Which value of pIC50 has been reported for "O=C(c1ccc(Cl)c(-n2ncc3c(=O)[nH]c(Cc4ccccc4OC(F)(F)F)nc32)c1)N1CCCCC1" in the records?
A: 6.30 to 8.00

Q: Endpoint output: pIC50 of "O=c1[nH]c(Cc2ccccc2OC(F)(F)F)nc2c1cnn2-c1cc(F)ccc1Br" . Value?
A: 6.30 to 8.00

Q: Need pIC50, item "COc1c(F)cccc1-n1ncc2c(=O)[nH]c(Cc3ccccc3OC(F)(F)F)nc21"
A: 6.30 to 8.00

Q: Field request: pIC50 | item: "O=c1[nH]c(Cc2ccccc2OC(F)(F)F)nc2c1cnn2-c1cccc(F)c1F"
A: 6.30 to 8.00

Q: Given "CCOc1cc(Cl)c(-n2ncc3c(=O)[nH]c(Cc4ccccc4OC(F)(F)F)nc32)cc1C" , state its recorded pIC50.
A: < 6.30

Q: For the compound "Cc1cccc(Cl)c1-n1ncc2c(=O)[nH]c(Cc3ccccc3OC(F)(F)F)nc21" , what pIC50 is on record?
A: < 6.30

Q: Reported pIC50, compound "O=c1[nH]c(Cc2ccccc2OC(F)(F)F)nc2c1cnn2-c1cccnc1" : ____
A: 6.30 to 8.00

Q: I have this compound here, "Cc1ccc(F)cc1-n1ncc2c(=O)[nH]c(Cc3ccccc3OC(F)(F)F)nc21" , and I need its recorded pIC50.
A: 6.30 to 8.00

Q: Consider the compound "O=c1[nH]c(Cc2ccccc2OC(F)(F)F)nc2c1cnn2-c1ccc(F)cc1F" and give its measured pIC50.
A: 6.30 to 8.00

Q: For the compound "Cc1ccc(Br)c(-n2ncc3c(=O)[nH]c(Cc4ccccc4OC(F)(F)F)nc32)c1" , what pIC50 is on record?
A: < 6.30

Q: What value of pIC50 has been reported for the following compound? "O=c1[nH]c(Cc2ccccc2OC(F)(F)F)nc2c1cnn2-c1cc(Br)ccc1Cl"
A: 6.30 to 8.00

Q: I am curious: what pIC50 value has been reported for "Cc1cc(-n2ncc3c(=O)[nH]c(Cc4ccccc4OC(F)(F)F)nc32)c(Cl)cc1F" ?
A: < 6.30
